# protocolDetails: chemical genetic growth profiling, strain panel (AID 1159580);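 also: tested at 20 µM; growth read once vehicle control cultures reached saturation at 30 °C; 1 = growth at the plate median or of vehicle wells; lower values mean less growth of the strain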
# condition: S. cerevisiae deletion strains, growth OD, locus YDR297W, strain sur2
The campaign covered roughly 5,500 compounds. About 2,000 (36%) were called active. Roughly 18% stayed inconclusive and do not appear here. Rule as the data show it: active = normalized growth mostly below about 0.91 (no sharp cut-off); inconclusive = no clear call, values can overlap the other calls; inactive = mostly above about 0.92. This is one part of the list.
Respond only with the outcome that fits, drawn from yes for active, no for inactive

Study these solved cases before continuing.
molecule	discreteLabel
O=C(Nc1ccccc1)Nc1ccccc1	no
O=c1cc(-c2ccccc2)oc2c(O)c(O)ccc12	no
CN(C)CCC(c1ccc(Br)cc1)c1ccccn1 (stereo unspecified)	no
CC1(C)C(O)CC(O)C2(C)C1CC(O)C1(C)C2CCC2(C)C(c3ccoc3)OC(=O)C3OC321 (stereo unspecified)	no

# lookup: test call for `COc1cc([C@H]2Oc3cc([C@H]4Oc5cc(O)cc(O)c5C(=O)[C@@H]4O)ccc3O[C@@H]2CO)ccc1O`
no

###

# protocolDetails: chemical genetic growth profiling, strain panel (AID 1159580);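 also: tested at 20 µM; growth read once vehicle control cultures reached saturation at 30 °C; 1 = growth at the plate median or of vehicle wells; lower values mean less growth of the strain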
# condition: S. cerevisiae deletion strains, growth OD, strain TSCII, stronger effect = lower value
Hit rate of the full screen: of about 5,500 compounds, about 2,000 (36%) were called active. Not shown: some 18% with an inconclusive outcome. The list shows a part of the results.
observedProperty: normalized growth
Give bare numbers.

In [3]: df
Out[3]:
                                molecule  quantitativereadout
0  COc1ccc(OC)c(-c2ccn[nH]2)c1OCc1ccccc1                0.992

Give normalized growth for each listed item.
1. Cc1c(S(=O)(=O)c2ccc(Cl)cc2)csc1C(=O)NNc1cccc(Cl)c1
2. COc1ccc(CC2CCC(=NOC(=O)c3ccc(C(C)(C)C)cc3)CC2)cc1 (stereo unspecified)
3. CC1C/C(=N/Nc2ccc(Br)cc2)c2cc(Cl)ccc2S1 (stereo unspecified)
4. CS(=O)(=O)/C(C#N)=C/c1ccccc1OCc1c(Cl)cccc1Cl

1: 0.957; 2: 0.978; 3: 0.644; 4: 0.962

Give normalized growth for each listed item.
1. O=C1/C(=C/c2ccc(C(F)(F)F)cc2)COc2ccccc21
2. CC1C/C(=N/Nc2ccc(Br)cc2)c2cc(Cl)ccc2S1(=O)=O (stereo unspecified)

[0.932, 0.994]

###

What normalized growth was measured for each of the following?
# protocolDetails: chemical genetic growth profiling, strain panel (AID 1159580);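 also: tested at 20 µM; growth read once vehicle control cultures reached saturation at 30 °C; 1 = growth at the plate median or of vehicle wells; lower values mean less growth of the strain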
# condition: S. cerevisiae deletion strains, growth OD, locus YJL154C, strain vps35, stronger effect = lower value
About 2,000 (36%) of roughly 5,500 compounds were called active. Inconclusive results (about 18%) are left out. This is one part of the list.
Answers are plain numbers.

As a guide, the following entries are already answered.
                                   compound   observedproperty  quantitativereadout
0  CN(C)CCC(c1ccc(Br)cc1)c1ccccn1 (stereo unspecified)  normalized growth                0.955
1  COc1cc([C@H]2Oc3cc([C@H]4Oc5cc(O)cc(O)c5C(=O)[C@@H]4O)ccc3O[C@@H]2CO)ccc1O  normalized growth                 1.01
2  CNC(=O)Oc1ccc2c(c1)[C@]1(C)CCN(C)[C@@H]1N2C  normalized growth                 1.01
3         O=c1cc(-c2ccc(O)cc2)oc2cc(O)ccc12  normalized growth                0.975
4      O=c1cc(-c2ccc(O)cc2)oc2cc(O)cc(O)c12  normalized growth                0.977

Proceed to the following item.
Name the recorded normalized growth for `O=c1cc(-c2cc(O)c(O)c(O)c2)oc2cc(O)cc(O)c12` .
1.02
